# maps each entry to its pIC50
- Assay target: human recombinant mGluR5 receptor (Homo sapiens, UniProt P41594)
- Construct: expressed in transfected cells; expression induced with doxycycline
- Sequence (P41594 21-1212): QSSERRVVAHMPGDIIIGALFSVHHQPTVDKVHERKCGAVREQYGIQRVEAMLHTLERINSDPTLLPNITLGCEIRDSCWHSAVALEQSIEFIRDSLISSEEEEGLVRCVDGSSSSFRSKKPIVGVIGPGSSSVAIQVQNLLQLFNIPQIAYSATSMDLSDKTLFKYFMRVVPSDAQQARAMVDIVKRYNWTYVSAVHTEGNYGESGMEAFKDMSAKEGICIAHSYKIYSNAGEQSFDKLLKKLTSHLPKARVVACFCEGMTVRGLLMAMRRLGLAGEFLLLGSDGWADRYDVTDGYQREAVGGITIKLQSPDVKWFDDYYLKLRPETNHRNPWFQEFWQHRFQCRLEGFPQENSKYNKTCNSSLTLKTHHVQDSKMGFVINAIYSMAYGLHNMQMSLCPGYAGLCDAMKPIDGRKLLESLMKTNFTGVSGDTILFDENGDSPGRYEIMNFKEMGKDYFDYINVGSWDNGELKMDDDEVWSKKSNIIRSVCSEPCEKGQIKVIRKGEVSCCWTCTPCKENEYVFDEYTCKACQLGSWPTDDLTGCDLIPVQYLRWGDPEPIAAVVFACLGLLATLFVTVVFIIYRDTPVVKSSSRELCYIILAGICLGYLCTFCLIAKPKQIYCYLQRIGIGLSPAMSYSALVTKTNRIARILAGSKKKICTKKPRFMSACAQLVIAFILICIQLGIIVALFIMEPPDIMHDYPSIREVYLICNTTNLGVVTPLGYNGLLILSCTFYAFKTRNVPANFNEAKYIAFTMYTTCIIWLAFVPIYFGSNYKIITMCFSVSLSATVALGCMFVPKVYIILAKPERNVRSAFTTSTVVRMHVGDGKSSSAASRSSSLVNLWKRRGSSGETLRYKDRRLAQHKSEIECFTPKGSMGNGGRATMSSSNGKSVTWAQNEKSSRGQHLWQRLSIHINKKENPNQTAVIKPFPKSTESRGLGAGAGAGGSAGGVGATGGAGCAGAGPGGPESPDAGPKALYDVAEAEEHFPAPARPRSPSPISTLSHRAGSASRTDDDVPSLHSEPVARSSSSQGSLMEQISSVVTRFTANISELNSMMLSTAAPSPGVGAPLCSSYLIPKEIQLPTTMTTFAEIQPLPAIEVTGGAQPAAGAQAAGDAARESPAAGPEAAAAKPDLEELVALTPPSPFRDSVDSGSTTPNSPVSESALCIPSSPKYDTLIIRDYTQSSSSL
- Method notes: mGluR5 in vitro functional assay (aequorin cell line, inhibition of glutamate EC80 response)
- Format: cell-based
- Measurement conditions: Table 2; aequorin cell line expressing human mGluR5, reference agonist glutamate at EC80; obtained in duplicate; read-out: IC50
pIC50: −log10 of the molar value.

{"Molecule": "Fc1ccc([C@@H]2CCc3oc(-c4ccccn4)nc3C2)c(Cl)c1 (single isomer, unassigned)", "pIC50": "> 6.00"}
{"Molecule": "Clc1cc(Cl)cc(N2CCc3oc(-c4ccccn4)nc3C2)c1", "pIC50": "> 6.00"}
{"Molecule": "O=C(CN1CCc2oc(-c3cccc(F)c3)nc2C1)c1ccc(F)cc1", "pIC50": "< 5.00"}
